Target: T1, Biotinylated Human NKp46/NCR/CD335 Protein, Fc, Avitag (NC1-H82F9) (human, UniProt O76036 22-255, biotinylated (Avitag))
T1 construct: Bought from ACROBiosystems, catalog NC1-H82F9; not shown: Fc and Avitag of the purchased protein
T1 sequence (O76036 22-255): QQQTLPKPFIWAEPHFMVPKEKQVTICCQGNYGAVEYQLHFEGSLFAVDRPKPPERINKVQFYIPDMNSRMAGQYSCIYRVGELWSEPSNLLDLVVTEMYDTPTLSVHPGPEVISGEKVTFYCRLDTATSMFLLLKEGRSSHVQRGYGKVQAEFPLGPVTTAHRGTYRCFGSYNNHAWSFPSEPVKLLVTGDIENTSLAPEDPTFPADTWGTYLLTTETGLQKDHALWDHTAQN
Assay: BLI (Octet RED96), target on sensor, monobody in five 2-fold dilutions
Each item that follows carries a reported kon.
// units = M⁻¹ s⁻¹; emit number, no label

query: Return the recorded kon value; entry: Mb-NKp46-CD-1 (designed binder, Monobody on human fibronectin type III domain scaffold, CD-FG library; also called NKp46 CD-FG No. 1; not shown: N-terminal residues of the expression construct (X7n7; the library has MPNR), linker, Sortase A recognition site and His tag) LEVVEASPTSIQISWDAPAVTVRYYDIYYGETGPGYYMWQRGVINVQAFTVPGSKSTATISGLKPGVDYTITVYAVTGQERAYGHPEHFPISINYRTEIDKPSQ
result: 530000

query: Return the recorded kon value; entry: Mb-NKp46-CD-3 (designed binder, Monobody on human fibronectin type III domain scaffold, CD-FG library; also called NKp46 CD-FG No. 3; not shown: N-terminal residues of the expression construct (X7n7; the library has MPNR), linker, Sortase A recognition site and His tag) LEVVEASPTSIQISWDAPAVTVRYYVISYGETGRYKYHRRINVQGFTVPGSKSTATISGLKPGVDYTITVYAVTGTQWYVFNEAGDVAGYPISINYRTEIDKPSQ
result: 72000

query: Return the recorded kon value; entry: Mb-NKp46-BC-2 (designed binder, Monobody on human fibronectin type III domain scaffold, BC-FG library; also called NKp46 BC-FG No. 2; not shown: N-terminal residues of the expression construct (X7n7; the library has MPNR), linker, Sortase A recognition site and His tag) LEVVEASPTSIQISWDAWTWLGYEYYWVRYYRITYGETGGNSPVQEFTVPGSKSTATISGLKPGVDYTITVYAVTWDSKPGAIGIPISINYRTEIDKPSQ
result: 380000

query: Return the recorded kon value; entry: Mb-NKp46-BC-3 (designed binder, Monobody on human fibronectin type III domain scaffold, BC-FG library; also called NKp46 BC-FG No. 3; not shown: N-terminal residues of the expression construct (X7n7; the library has MPNR), linker, Sortase A recognition site and His tag) LEVVEASPTSIQISWDATYWDWGFRVRYYRITYGETGGNSPVQEFTVPGSKSTATISGLKPGVDYTITVYAVTWSWARRTHISWFPISINYRTEIDKPSQ
result: 100000
